// provenance: the supplement of paper PMC10307832

Listed compounds paired with reported relative viability
System: NCI-H441
Procedure details: relative viability (nuclei count vs DMSO), 5 days (fraction); higher = more cells survive
Assay setup: first compound 0.03162 µM

Value of relative viability reported for the compound O=c1cc(N2CCOCC2)oc2c(-c3cccc4c3sc3ccccc34)cccc12 + COc1cc2c(Oc3ccc(NC(=O)C4(C(=O)Nc5ccc(F)cc5)CC4)cc3F)ccnc2cc1OCCCN1CCOCC1 [Foretinib] (partner 0.25 µM) is 0.864

Value of relative viability reported for the compound CCN(CC)CCCCNc1ncc2cc(-c3cc(OC)cc(OC)c3)c(NC(=O)NC(C)(C)C)nc2n1 + Cc1nc(NC(=O)N2CCC[C@H]2C(N)=O)sc1-c1ccnc(C(C)(C)C(F)(F)F)c1 [Alpelisib] (partner 2 µM) is 0.62

====

Listed compounds paired with reported relative viability
Test system: SW 1573
Procedure details: relative viability (nuclei count vs DMSO), 5 days (fraction); higher = more cells survive
Assay setup: first compound 0.1 µM
The reply should be a number, written without any unit.

In the examples that follow, each entry is paired with its recorded relative viability.
# Compound, Test readout, Measured number
data = [
    ("CCN(CC)CCCCNc1ncc2cc(-c3cc(OC)cc(OC)c3)c(NC(=O)NC(C)(C)C)nc2n1 + O=C(CCCCCCC(=O)Nc1ccccc1)NO [Vorinostat] (partner 1 µM)", "relative viability", 0.952),
    ("CCN(CC)CCCCNc1ncc2cc(-c3cc(OC)cc(OC)c3)c(NC(=O)NC(C)(C)C)nc2n1 + CC(=O)c1c(C)c2cnc(Nc3ccc(N4CCNCC4)cn3)nc2n(C2CCCC2)c1=O [Palbociclib] (partner 0.5 µM)", "relative viability", 0.519),
]

Value of relative viability reported for the compound O=c1cc(N2CCOCC2)oc2c(-c3cccc4c3sc3ccccc34)cccc12 + O=C(CCCCCCC(=O)Nc1ccccc1)NO [Vorinostat] (partner 1 µM) is 0.55

Value of relative viability reported for the compound CCN(CC)CCCCNc1ncc2cc(-c3cc(OC)cc(OC)c3)c(NC(=O)NC(C)(C)C)nc2n1 + CS(=O)(=O)CCNCc1ccc(-c2ccc3ncnc(Nc4ccc(OCc5cccc(F)c5)c(Cl)c4)c3c2)o1 [Lapatinib] (partner 2 µM) is 1.19

Value of relative viability reported for the compound CCN(CC)CCCCNc1ncc2cc(-c3cc(OC)cc(OC)c3)c(NC(=O)NC(C)(C)C)nc2n1 + CC1(C)CCC(c2ccc(Cl)cc2)=C(CN2CCN(c3ccc(C(=O)NS(=O)(=O)c4ccc(N[C@H](CCN5CCOCC5)CSc5ccccc5)c(S(=O)(=O)C(F)(F)F)c4)cc3)CC2)C1 [Navitoclax] (partner 0.5 µM) is 1.31

====

Test system: HCC-15
Procedure details: relative viability (nuclei count vs DMSO), 5 days (fraction); higher = more cells survive
Assay setup: first compound 0.8 µM
Test readout: relative viability
The reply should be a number, written without any unit.

In the examples that follow, each entry is paired with its recorded relative viability.
# Compound, Measured number
rows = [
    ("COc1nc(C)cnc1NS(=O)(=O)c1cccnc1-c1ccc(-c2nnco2)cc1 [Zibotentan] + CCNC(=O)c1noc(-c2cc(C(C)C)c(O)cc2O)c1-c1ccc(CN2CCOCC2)cc1 [Luminespib] (partner 0.01 µM)", 0.4),
    ("O=c1cc(-c2cccc3c2Sc2ccccc2S3)oc(N2CCOCC2)c1 + Nc1nc2[nH]cc(CCc3ccc(C(=O)N[C@@H](CCC(=O)O)C(=O)O)cc3)c2c(=O)[nH]1 [Pemetrexed] (partner 0.2 µM)", 0.207),
    ("O=c1cc(-c2cccc3c2Sc2ccccc2S3)oc(N2CCOCC2)c1 + O=C(c1cc(Cc2n[nH]c(=O)c3ccccc23)ccc1F)N1CCN(C(=O)C2CC2)CC1 [Olaparib] (partner 8 µM)", 0.707),
]

Value of relative viability reported for the compound COc1nc(C)cnc1NS(=O)(=O)c1cccnc1-c1ccc(-c2nnco2)cc1 [Zibotentan] + COc1cccc2cc(-c3nc([C@H]4CC[C@H](C(=O)O)CC4)n4ncnc(N)c34)[nH]c12 [OSI-027] (partner 0.5 µM) is 0.759

Value of relative viability reported for the compound COc1nc(C)cnc1NS(=O)(=O)c1cccnc1-c1ccc(-c2nnco2)cc1 [Zibotentan] + C[C@@H](Oc1cc(-c2cnn(C3CCNCC3)c2)cnc1N)c1c(Cl)ccc(F)c1Cl [Crizotinib] (partner 1 µM) is 0.843

Value of relative viability reported for the compound COc1nc(C)cnc1NS(=O)(=O)c1cccnc1-c1ccc(-c2nnco2)cc1 [Zibotentan] + CS(=O)(=O)N1CCN(Cc2cc3nc(-c4cccc5[nH]ncc45)nc(N4CCOCC4)c3s2)CC1 [Pictilisib] (partner 1 µM) is 0.687

Value of relative viability reported for the compound O=c1cc(-c2cccc3c2Sc2ccccc2S3)oc(N2CCOCC2)c1 + CS(=O)(=O)CCNCc1ccc(-c2ccc3ncnc(Nc4ccc(OCc5cccc(F)c5)c(Cl)c4)c3c2)o1 [Lapatinib] (partner 2 µM) is 0.873

Value of relative viability reported for the compound COc1nc(C)cnc1NS(=O)(=O)c1cccnc1-c1ccc(-c2nnco2)cc1 [Zibotentan] + Cc1cc(Nc2cc(N3CCN(C)CC3)nc(Sc3ccc(NC(=O)C4CC4)cc3)n2)n[nH]1 [Tozasertib] (partner 0.1 µM) is 0.373

Value of relative viability reported for the compound COc1nc(C)cnc1NS(=O)(=O)c1cccnc1-c1ccc(-c2nnco2)cc1 [Zibotentan] + COc1cc2c(Oc3ccc(NC(=O)C4(C(=O)Nc5ccc(F)cc5)CC4)cc3F)ccnc2cc1OCCCN1CCOCC1 [Foretinib] (partner 0.25 µM) is 1.03

====

Tested on: NCI-H322M
Procedure details: relative viability (nuclei count vs DMSO), 5 days (fraction); higher = more cells survive
Assay setup: first compound 0.08 µM
Test readout: relative viability

In the examples that follow, each entry is paired with its recorded relative viability.
# Compound, Result
records = [
    ("O=c1cc(-c2cccc3c2Sc2ccccc2S3)oc(N2CCOCC2)c1 + NC(=O)Nc1cc(-c2cccc(F)c2)sc1C(=O)N[C@H]1CCCNC1 [AZD7762] (partner 0.2 µM)", 0.665),
    ("O=c1cc(-c2cccc3c2Sc2ccccc2S3)oc(N2CCOCC2)c1 + CS(=O)(=O)N1CCN(Cc2cc3nc(-c4cccc5[nH]ncc45)nc(N4CCOCC4)c3s2)CC1 [Pictilisib] (partner 1 µM)", 0.512),
]

Okay, now this compound:
Value of relative viability reported for the compound O=c1cc(-c2cccc3c2Sc2ccccc2S3)oc(N2CCOCC2)c1 + CS(=O)(=O)CCNCc1ccc(-c2ccc3ncnc(Nc4ccc(OCc5cccc(F)c5)c(Cl)c4)c3c2)o1 [Lapatinib] (partner 2 µM) is 0.64

====

System: HCC-827
Procedure details: relative viability (nuclei count vs DMSO), 5 days (fraction); higher = more cells survive
Assay setup: first compound 0.01 µM
Category scheme (relative viability): lo (below 0.3), mid (0.3 to below 0.8), hi (0.8 or more)

Worked cases, answers included:
# Molecule, Class name
data = [
    ("O=c1cc(N2CCOCC2)oc2c(-c3cccc4c3sc3ccccc34)cccc12 + N=C(N)NC(=N)NCCc1ccccc1 [Phenformin] (partner 250 µM)", "mid"),
    ("CCN(CC)CCCCNc1ncc2cc(-c3cc(OC)cc(OC)c3)c(NC(=O)NC(C)(C)C)nc2n1 + CC(=O)Nc1cccc(-n2c(=O)n(C3CC3)c(=O)c3c(Nc4ccc(I)cc4F)n(C)c(=O)c(C)c32)c1 [Trametinib] (partner 0.02 µM)", "mid"),
    ("CCN(CC)CCCCNc1ncc2cc(-c3cc(OC)cc(OC)c3)c(NC(=O)NC(C)(C)C)nc2n1 + CC(C)C[C@H](NC(=O)[C@H](Cc1ccccc1)NC(=O)c1cnccn1)B(O)O [Bortezomib] (partner 0.002 µM)", "hi"),
]

Looking at O=c1cc(N2CCOCC2)oc2c(-c3cccc4c3sc3ccccc34)cccc12 + Cc1nc(NC(=O)N2CCC[C@H]2C(N)=O)sc1-c1ccnc(C(C)(C)C(F)(F)F)c1 [Alpelisib] (partner 2 µM) , which class would you pick? hi

Looking at CCN(CC)CCCCNc1ncc2cc(-c3cc(OC)cc(OC)c3)c(NC(=O)NC(C)(C)C)nc2n1 + NC(=O)Nc1cc(-c2cccc(F)c2)sc1C(=O)N[C@H]1CCCNC1 [AZD7762] (partner 0.2 µM) , which class would you pick? lo

Looking at CCN(CC)CCCCNc1ncc2cc(-c3cc(OC)cc(OC)c3)c(NC(=O)NC(C)(C)C)nc2n1 + O=C(c1cc(Cc2n[nH]c(=O)c3ccccc23)ccc1F)N1CCN(C(=O)C2CC2)CC1 [Olaparib] (partner 8 µM) , which class would you pick? mid

Looking at CCN(CC)CCCCNc1ncc2cc(-c3cc(OC)cc(OC)c3)c(NC(=O)NC(C)(C)C)nc2n1 + Nc1nc2[nH]cc(CCc3ccc(C(=O)N[C@@H](CCC(=O)O)C(=O)O)cc3)c2c(=O)[nH]1 [Pemetrexed] (partner 0.2 µM) , which class would you pick? lo

Looking at O=c1cc(N2CCOCC2)oc2c(-c3cccc4c3sc3ccccc34)cccc12 + Nc1nc2[nH]cc(CCc3ccc(C(=O)N[C@@H](CCC(=O)O)C(=O)O)cc3)c2c(=O)[nH]1 [Pemetrexed] (partner 0.2 µM) , which class would you pick? lo
